Test system: 349418-098-R-PDC complex spheroid growth
ASSAY_SUMMARY: Anticancer human tumor 349418-098-R-PDC patient-derived lung adenocarcinoma cell line growth inhibition [AhR]
MEASUREMENT_PARAMETERS: second compound 1 µM; first compound 0.00949 µM; hits give low values
From the text: Multicellular complex tumor spheroid response to aryl hydrocarbon receptor antagonists in combination with a variety of drugs and investigational agents in selected tumor cell lines […] Compounds. […] If the clinical Cmax for an agent had not been determined, the highest concentration tested was 10 microM (Table 1). […]
Overview of recorded viability, T/C for various compounds
OBSERVABLE: viability, T/C (%)

COMPOUND: CC(C)CC(NC(=O)C(Cc1ccccc1)NC(=O)c1cnccn1)B(O)O (centres undefined) + Cc1cncc(-c2nc(NCCc3c[nH]c4ccccc34)c3ncn(C(C)C)c3n2)c1
OBSERVABLE: viability, T/C
REPORTED_MEASUREMENT: 1.7
--
COMPOUND: CC(C)CC(NC(=O)C(Cc1ccccc1)NC(=O)c1cnccn1)B(O)O (centres undefined) + Cc1ccccc1N=Nc1ccc(NC(=O)c2ccnn2C)c(C)c1
OBSERVABLE: viability, T/C
REPORTED_MEASUREMENT: 2.69
--
COMPOUND: CCN(c1cc(-c2ccc(CN3CCOCC3)cc2)cc(C(=O)NCc2c(C)cc(C)[nH]c2=O)c1C)C1CCOCC1 + CC(CO)NC(=O)c1cc(-c2ccc(Cl)cc2)nn(-c2cnn(C)c2)c1=O
OBSERVABLE: viability, T/C
REPORTED_MEASUREMENT: 114
--
COMPOUND: O=C(C=Cn1cnc(-c2cc(C(F)(F)F)cc(C(F)(F)F)c2)n1)NNc1cnccn1 + Cc1ccccc1N=Nc1ccc(NC(=O)c2ccnn2C)c(C)c1
OBSERVABLE: viability, T/C
REPORTED_MEASUREMENT: 37.8
--
COMPOUND: O=C(C=Cn1cnc(-c2cc(C(F)(F)F)cc(C(F)(F)F)c2)n1)NNc1cnccn1 + CC(CO)NC(=O)c1cc(-c2ccc(Cl)cc2)nn(-c2cnn(C)c2)c1=O
OBSERVABLE: viability, T/C
REPORTED_MEASUREMENT: 62.4
--
COMPOUND: Nc1ncn(C2CC(O)C(CO)S2)c(=O)n1 (centres undefined) + Cc1cncc(-c2nc(NCCc3c[nH]c4ccccc34)c3ncn(C(C)C)c3n2)c1
OBSERVABLE: viability, T/C
REPORTED_MEASUREMENT: 38.9
--
COMPOUND: CCN(c1cc(-c2ccc(CN3CCOCC3)cc2)cc(C(=O)NCc2c(C)cc(C)[nH]c2=O)c1C)C1CCOCC1 + Cc1cncc(-c2nc(NCCc3c[nH]c4ccccc34)c3ncn(C(C)C)c3n2)c1
OBSERVABLE: viability, T/C
REPORTED_MEASUREMENT: 82.8
--
COMPOUND: CCc1c2c(nc3ccc(O)cc13)-c1cc3c(c(=O)n1C2)COC(=O)[C@]3(O)CC + Cc1cncc(-c2nc(NCCc3c[nH]c4ccccc34)c3ncn(C(C)C)c3n2)c1
OBSERVABLE: viability, T/C
REPORTED_MEASUREMENT: 5.54
--
COMPOUND: O=C(C=Cn1cnc(-c2cc(C(F)(F)F)cc(C(F)(F)F)c2)n1)NNc1cnccn1 + Cc1cncc(-c2nc(NCCc3c[nH]c4ccccc34)c3ncn(C(C)C)c3n2)c1
OBSERVABLE: viability, T/C
REPORTED_MEASUREMENT: 95.8

---

System: 349418-098-R-PDC complex spheroid growth
ASSAY_SUMMARY: Anticancer human tumor 349418-098-R-PDC cell line growth inhibition [AhR];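 also: spheroids also contain HUVEC endothelial cells and human MSC stroma; spheroids exposed to agents for seven days before luminescence viability read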
MEASUREMENT_PARAMETERS: second compound 3.16 µM; first compound 0.1 µM; hits give low values

COMPOUND: CC1COCCN1c1cc(C2(S(C)(=N)=O)CC2)nc(-c2ccnc3[nH]ccc23)n1 (stereo not given) + Cc1cncc(-c2nc(NCCc3c[nH]c4ccccc34)c3ncn(C(C)C)c3n2)c1
viability, T/C: 15.9%

COMPOUND: CC(C)c1c(-c2ccccc2)nc2c(C#N)c[nH]n2c1=O + CC(CO)NC(=O)c1cc(-c2ccc(Cl)cc2)nn(-c2cnn(C)c2)c1=O
viability, T/C: 86.2%

COMPOUND: Nc1ccn(C2OC(CO)C(O)C2(F)F)c(=O)n1 (stereo not given) + Cc1ccccc1N=Nc1ccc(NC(=O)c2ccnn2C)c(C)c1
viability, T/C: 16.4%

COMPOUND: CC1(C)CCC(CN2CCN(c3ccc(C(=O)NS(=O)(=O)c4ccc(NCC5CCOCC5)c([N+](=O)[O-])c4)c(Oc4cnc5[nH]ccc5c4)c3)CC2)=C(c2ccc(Cl)cc2)C1 + CC(CO)NC(=O)c1cc(-c2ccc(Cl)cc2)nn(-c2cnn(C)c2)c1=O
viability, T/C: 86.8%

COMPOUND: COc1cccc2c1C(=O)c1c(O)c3c(c(O)c1C2=O)CC(O)(C(=O)CO)CC3OC1CC(N)C(O)C(C)O1 (stereo not given) + Cc1cncc(-c2nc(NCCc3c[nH]c4ccccc34)c3ncn(C(C)C)c3n2)c1
viability, T/C: 3.03%

---

Test system: 349418-098-R-PDC complex spheroid growth
ASSAY_SUMMARY: Anticancer human tumor 349418-098-R-PDC cell line growth inhibition [AhR];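 also: spheroids also contain HUVEC endothelial cells and human MSC stroma; spheroids exposed to agents for seven days before luminescence viability read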
MEASUREMENT_PARAMETERS: second compound 1 µM; first compound 10 µM; hits give low values
Overview of recorded viability, T/C for various compounds
OBSERVABLE: viability, T/C (%)

COMPOUND: COc1ccc([C@@H](O)c2cc(-c3ncnc4cc(N5CCOCC5)ccc34)c(F)cc2Cl)nn1 + CC(CO)NC(=O)c1cc(-c2ccc(Cl)cc2)nn(-c2cnn(C)c2)c1=O
TESTED_SYSTEM: 349418-098-R-PDC complex spheroid growth
OBSERVABLE: viability, T/C
MEASURE_UNIT: %
REPORTED_MEASUREMENT: 13.2
//
COMPOUND: COc1ccc([C@@H](O)c2cc(-c3ncnc4cc(N5CCOCC5)ccc34)c(F)cc2Cl)nn1 + Cc1ccccc1N=Nc1ccc(NC(=O)c2ccnn2C)c(C)c1
TESTED_SYSTEM: 349418-098-R-PDC complex spheroid growth
OBSERVABLE: viability, T/C
MEASURE_UNIT: %
REPORTED_MEASUREMENT: 12
//
COMPOUND: Nc1ccn(C2OC(CO)C(O)C2(F)F)c(=O)n1 (stereo not drawn) + CC(CO)NC(=O)c1cc(-c2ccc(Cl)cc2)nn(-c2cnn(C)c2)c1=O
TESTED_SYSTEM: 349418-098-R-PDC complex spheroid growth
OBSERVABLE: viability, T/C
MEASURE_UNIT: %
REPORTED_MEASUREMENT: 5.77

---

Tested on: 349418-098-R-PDC complex spheroid growth
ASSAY_SUMMARY: Anticancer human tumor 349418-098-R-PDC cell line growth inhibition [AhR];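 also: spheroids also contain HUVEC endothelial cells and human MSC stroma; spheroids exposed to agents for seven days before luminescence viability read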
MEASUREMENT_PARAMETERS: second compound 1 µM; first compound 10 µM; hits give low values
Mark y only when viability, T/C stays strictly below 9%. Values equal to the cut-off are n.

COMPOUND: Nc1ccn(C2OC(CO)C(O)C2(F)F)c(=O)n1 (configuration not stated) + Cc1cncc(-c2nc(NCCc3c[nH]c4ccccc34)c3ncn(C(C)C)c3n2)c1
GROUP: y
--
COMPOUND: COc1cc(Nc2ncc3c(n2)-c2ccc(Cl)cc2C(c2c(F)cccc2OC)=NC3)ccc1C(=O)O + CC(CO)NC(=O)c1cc(-c2ccc(Cl)cc2)nn(-c2cnn(C)c2)c1=O
GROUP: n
--
COMPOUND: CC(C)c1c(-c2ccccc2)nc2c(C#N)c[nH]n2c1=O + CC(CO)NC(=O)c1cc(-c2ccc(Cl)cc2)nn(-c2cnn(C)c2)c1=O
GROUP: n
--
COMPOUND: COc1cccc2c1C(=O)c1c(O)c3c(c(O)c1C2=O)CC(O)(C(=O)CO)CC3OC1CC(N)C(O)C(C)O1 (configuration not stated) + Cc1ccccc1N=Nc1ccc(NC(=O)c2ccnn2C)c(C)c1
GROUP: y
--
COMPOUND: CC1(C)CCC(CN2CCN(c3ccc(C(=O)NS(=O)(=O)c4ccc(NCC5CCOCC5)c([N+](=O)[O-])c4)c(Oc4cnc5[nH]ccc5c4)c3)CC2)=C(c2ccc(Cl)cc2)C1 + Cc1ccccc1N=Nc1ccc(NC(=O)c2ccnn2C)c(C)c1
GROUP: n
--
COMPOUND: O=C(C=Cc1cccc(S(=O)(=O)Nc2ccccc2)c1)NO + Cc1ccccc1N=Nc1ccc(NC(=O)c2ccnn2C)c(C)c1
GROUP: y
--
COMPOUND: NS(=O)(=O)OCC1CC(n2ccc3c(NC4CCc5ccccc54)ncnc32)CC1O (configuration not stated) + Cc1ccccc1N=Nc1ccc(NC(=O)c2ccnn2C)c(C)c1
GROUP: n
--
COMPOUND: NS(=O)(=O)OCC1CC(n2ccc3c(NC4CCc5ccccc54)ncnc32)CC1O (configuration not stated) + Cc1cncc(-c2nc(NCCc3c[nH]c4ccccc34)c3ncn(C(C)C)c3n2)c1
GROUP: y
--
COMPOUND: O=C(c1cc(Cc2n[nH]c(=O)c3ccccc23)ccc1F)N1CCN(C(=O)C2CC2)CC1 + Cc1ccccc1N=Nc1ccc(NC(=O)c2ccnn2C)c(C)c1
GROUP: n
--
COMPOUND: Nc1ccccc1NC(=O)c1ccc(CNC(=O)OCc2cccnc2)cc1 + Cc1cncc(-c2nc(NCCc3c[nH]c4ccccc34)c3ncn(C(C)C)c3n2)c1
GROUP: y
--
COMPOUND: CC1(C)CCC(CN2CCN(c3ccc(C(=O)NS(=O)(=O)c4ccc(NCC5CCOCC5)c([N+](=O)[O-])c4)c(Oc4cnc5[nH]ccc5c4)c3)CC2)=C(c2ccc(Cl)cc2)C1 + CC(CO)NC(=O)c1cc(-c2ccc(Cl)cc2)nn(-c2cnn(C)c2)c1=O
GROUP: n
